From: patent US7067658B2

study system: cloned human CRF1 receptors (Homo sapiens, UniProt P34998)
Construct: the coding region is amplified by PCR from start to stop codons; expressed in transfected cells; host or cells: 293EBNA cells (episomal vector phchCRFR, hygromycin selection); membrane homogenate
Sequence (P34998 24-415): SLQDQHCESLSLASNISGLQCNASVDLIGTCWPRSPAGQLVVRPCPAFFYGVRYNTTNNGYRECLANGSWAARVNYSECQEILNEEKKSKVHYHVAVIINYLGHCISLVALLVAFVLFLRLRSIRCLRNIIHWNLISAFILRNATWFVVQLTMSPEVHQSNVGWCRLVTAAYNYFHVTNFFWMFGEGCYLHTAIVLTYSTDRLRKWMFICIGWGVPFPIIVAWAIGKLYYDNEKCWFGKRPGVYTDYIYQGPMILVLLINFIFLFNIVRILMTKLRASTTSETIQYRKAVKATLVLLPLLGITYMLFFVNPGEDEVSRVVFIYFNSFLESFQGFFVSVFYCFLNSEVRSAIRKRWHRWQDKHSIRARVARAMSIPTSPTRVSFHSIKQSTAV
assay info: CRF1 receptor binding assay (inhibition of 125I-ovine-CRF binding to membranes of 293EBNA cells transfected with hCRFR1)
reported conditions: Potency of binding to CRF1 receptor, listed as IC50 ranges; read-out: IC50 Range*
Description: Provided herein is an example of a CRF1 receptor binding assay that can be used for the evaluation of biological activity of compounds of the present invention. […] Binding assays are performed in 96 well plates; each well having a 300 μL capacity. […] Filters are rinsed 2 times with ice cold assay buffer before removing individual filters and assessing them for radioactivity on a gamma counter.
metric: IC50

Query :: Please give the measured IC50 for this compound: CCC(COC)n1c(=O)c(C)nc2c(-c3cc(F)c(OC)cc3Cl)ccnc21 (stereo not shown)
Result :: 1 to 10 nM

----------
study system: cloned human CRF1 receptors (Homo sapiens)
Construct: the coding region is amplified by PCR from start to stop codons; expressed in transfected cells; host or cells: 293EBNA cells (episomal vector phchCRFR, hygromycin selection); membrane homogenate
assay info: CRF1 receptor binding assay (inhibition of 125I-ovine-CRF binding to membranes of 293EBNA cells transfected with hCRFR1)
reported conditions: IC50 ranges as class symbols a-e; read-out: IC50 Range* (potency of binding to CRF1 receptor)
Assignment: determine reported IC50 for the given compounds.

Use these answered entries as a reference point.
compound	study system	IC50
CCC(C1CC1)n1c(=O)c(C)nc2c(-c3cc(C)c(OC)cc3Cl)ccnc21 (stereo not shown) [Example 484]	cloned human CRF1 receptors (Homo sapiens)	< 1 nM
CCC(COC)n1c(=O)c(C)nc2c(-c3cc(Cl)c(OC)cc3C)ccnc21 (stereo not shown) [Example 459]	cloned human CRF1 receptors (Homo sapiens)	1 to 10 nM
CCC(COC)n1c(=O)c(C)nc2c(-c3cc(C)c(OC)cc3Cl)ccnc21 (stereo not shown) [Example 491]	cloned human CRF1 receptors (Homo sapiens)	< 1 nM

Each compound below has a recorded value; state its IC50.
1. CCC(C1CC1)n1c(=O)c(C)nc2c(-c3cc(F)c(N(C)C)cc3Cl)ccnc21 (stereo not shown) [Example 500]
2. CCC(C1CC1)n1c(=O)c(C)nc2c(-c3cc(Cl)c(OC)cc3C)ccnc21 (stereo not shown) [Example 452]
3. COCC(C)n1c(=O)c(C)nc2c(-c3cc(F)c(N(C)C)cc3Cl)ccnc21 (stereo not shown) [Example 506]
4. CCC(COC)n1c(=O)c(C)nc2c(-c3cc(F)c(N(C)C)cc3Cl)ccnc21 (stereo not shown) [Example 507]

Result ::
< 1 nM
< 1 nM
1 to 10 nM
< 1 nM

----------
study system: cloned human CRF1 receptors (Homo sapiens)
Construct: the coding region is amplified by PCR from start to stop codons; expressed in transfected cells; host or cells: 293EBNA cells (episomal vector phchCRFR, hygromycin selection); membrane homogenate
assay info: CRF1 receptor binding assay (inhibition of 125I-ovine-CRF binding to membranes of 293EBNA cells transfected with hCRFR1)
reported conditions: IC50 ranges, class symbols a-e; read-out: IC50 Range* (potency of binding to CRF1 receptor)
metric: IC50

molecule	metric	result
CCCC(C1CC1)n1c(=O)c(C)nc2c(-c3ccc(OC)nc3C)ccnc21 (racemic)	IC50	10 to 100 nM

Each molecule below has a recorded value; state its IC50.
1. CCCC(CCC)n1c(=O)c(C)nc2c(-c3ccc(OC)cc3Cl)ncnc21
2. CCCC(C1CC1)n1c(=O)c(C)nc2c(-c3ccc(OC)cc3C)ccnc21 (racemic)

Result ::
1 to 10 nM
1 to 10 nM

Each molecule below has a recorded value; state its IC50.
1. CCCC(C1CC1)n1c(=O)c(C)nc2c(-c3ccc(Cl)cc3Cl)ccnc21 (racemic)
2. CCC(C1CCC1)n1c(=O)c(C)nc2c(-c3ccc(OC)cc3Cl)ccnc21 (stereo not shown)
3. COCC(C)n1c(=O)c(C)nc2c(-c3ccc(Cl)cc3Cl)ccnc21 (racemic)
4. COCC(C)n1c(=O)c(C)nc2c(-c3ccc(OC)cc3Cl)ccnc21 (stereo not shown)
5. CCCC(C)n1c(=O)c(C)nc2c(-c3ccc(Cl)cc3Cl)ccnc21 (racemic)
6. CCCC(CCC)n1c(=O)c(C)nc2c(-c3ccc(OC)cc3Cl)ccnc21

Result ::
["1 to 10 nM", "1 to 10 nM", "10 to 100 nM", "10 to 100 nM", "10 to 100 nM", "1 to 10 nM"]

Each molecule below has a recorded value; state its IC50.
1. Cc1nc2c(-c3ccc(Cl)cc3Cl)ccnc2n(CC(C)C)c1=O
2. CCC(C)n1c(=O)c(C)nc2c(-c3ccc(Cl)cc3Cl)ncnc21 (racemic)
3. CCC(COC)n1c(=O)c(C)nc2c(-c3ccc(Cl)cc3Cl)ccnc21 (racemic)
4. COCC(C)n1c(=O)c(C)nc2c(-c3ccc(OC)nc3C)ncnc21 (stereo not shown)
5. CCCC(C1CC1)n1c(=O)c(C)nc2c(-c3ccc(OC(F)F)cc3Cl)ccnc21 (racemic)
6. CCC(C)n1c(=O)c(C)nc2c(-c3ccc(OC(F)F)cc3Cl)ccnc21 (racemic)
7. CCCCC(CC)n1c(=O)c(C)nc2c(-c3ccc(OC)nc3C)ccnc21 (racemic)

Result ::
["> 1000 nM", "100 to 1000 nM", "1 to 10 nM", "> 1000 nM", "1 to 10 nM", "10 to 100 nM", "100 to 1000 nM"]
